# measurement.target: T1, SPRTN core (E112Q) (human, UniProt Q9H040 26-240, E112Q)
# T1 sequence: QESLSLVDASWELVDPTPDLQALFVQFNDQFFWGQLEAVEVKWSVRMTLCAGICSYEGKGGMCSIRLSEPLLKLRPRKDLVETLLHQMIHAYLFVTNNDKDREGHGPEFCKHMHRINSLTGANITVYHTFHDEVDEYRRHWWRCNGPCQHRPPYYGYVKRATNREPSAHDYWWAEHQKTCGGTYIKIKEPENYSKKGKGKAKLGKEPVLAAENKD
# test.details: ITC; no ubiquitin; N=0.36 ± 0.05; ITC: 50 mM HEPES pH 7.4, 50 mM NaCl, 0.5 mM TCEP-HCl, 25 °C, one-site model
# test.conditions: protein: recombinant; tags: none left (N-terminal His removed by TEV); chain copies: 3; single strand
measure: Kd (µM)
Give bare numbers, in µM.

I'd like to know its Kd. The binder in question is ACGCCTGAAGAGTCTGGTGA (ssDNA) [ssDNA (20 nt), Turner-20bp-F]
4.33
